# system: T1, HLA-A*02:01 (recombinant MHC class I molecule) (human)
# T1 construct: Recombinant MHC used in the ProImmune REVEAL assay; also called HLA-A2:01
# assayMethodText: REVEAL MHC-peptide binding assay, recombinant MHC, score normalised to positive control = 100
# Procedure: Specifically, assessment was of a series of overlapping 9-mer peptides derived from the sequence […] […] In addition, a series of overlapping 9-mer peptides of each of a number of different variants of this portion also were assessed, each variant containing a mutation or mutations in this region as described in Example 2. […]
No end group written: not given here.
quantityMeasured: In Vitro Score

WVQRGNKKA (not fully specified, Synthetic 9-mer junction variant) [Synthetic peptide WVQRGNKKA (K28Q/L34A as labelled)] | 1.9 % of positive control peptide
AFIIFWVRR (Synthetic 9-mer junction variant) [Synthetic peptide AFIIFWVRR (K28R)] | 1.4 % of positive control peptide
WVQRGNKKS (not fully specified, Synthetic 9-mer junction variant) [Synthetic peptide WVQRGNKKS (K28Q/L34S as labelled)] | 1.2 % of positive control peptide

Entry WVKRGRKKA (Synthetic 9-mer variant of the CD28 transmembrane / 4-1BB costimulatory junction region) [Synthetic peptide WVKRGRKKA (L34A)] : reported In Vitro Score = ?
4.5 % of positive control peptide
